Taken from patent US20070224196A1.

- STUDY_SYSTEM: T1, human erythrocyte complement receptor 1 (CR1) (human, UniProt P17927 42-2039)
- T1 construct: whole, on cells; also called C3b receptor; CD35
- T1 sequence (P17927 42-2039): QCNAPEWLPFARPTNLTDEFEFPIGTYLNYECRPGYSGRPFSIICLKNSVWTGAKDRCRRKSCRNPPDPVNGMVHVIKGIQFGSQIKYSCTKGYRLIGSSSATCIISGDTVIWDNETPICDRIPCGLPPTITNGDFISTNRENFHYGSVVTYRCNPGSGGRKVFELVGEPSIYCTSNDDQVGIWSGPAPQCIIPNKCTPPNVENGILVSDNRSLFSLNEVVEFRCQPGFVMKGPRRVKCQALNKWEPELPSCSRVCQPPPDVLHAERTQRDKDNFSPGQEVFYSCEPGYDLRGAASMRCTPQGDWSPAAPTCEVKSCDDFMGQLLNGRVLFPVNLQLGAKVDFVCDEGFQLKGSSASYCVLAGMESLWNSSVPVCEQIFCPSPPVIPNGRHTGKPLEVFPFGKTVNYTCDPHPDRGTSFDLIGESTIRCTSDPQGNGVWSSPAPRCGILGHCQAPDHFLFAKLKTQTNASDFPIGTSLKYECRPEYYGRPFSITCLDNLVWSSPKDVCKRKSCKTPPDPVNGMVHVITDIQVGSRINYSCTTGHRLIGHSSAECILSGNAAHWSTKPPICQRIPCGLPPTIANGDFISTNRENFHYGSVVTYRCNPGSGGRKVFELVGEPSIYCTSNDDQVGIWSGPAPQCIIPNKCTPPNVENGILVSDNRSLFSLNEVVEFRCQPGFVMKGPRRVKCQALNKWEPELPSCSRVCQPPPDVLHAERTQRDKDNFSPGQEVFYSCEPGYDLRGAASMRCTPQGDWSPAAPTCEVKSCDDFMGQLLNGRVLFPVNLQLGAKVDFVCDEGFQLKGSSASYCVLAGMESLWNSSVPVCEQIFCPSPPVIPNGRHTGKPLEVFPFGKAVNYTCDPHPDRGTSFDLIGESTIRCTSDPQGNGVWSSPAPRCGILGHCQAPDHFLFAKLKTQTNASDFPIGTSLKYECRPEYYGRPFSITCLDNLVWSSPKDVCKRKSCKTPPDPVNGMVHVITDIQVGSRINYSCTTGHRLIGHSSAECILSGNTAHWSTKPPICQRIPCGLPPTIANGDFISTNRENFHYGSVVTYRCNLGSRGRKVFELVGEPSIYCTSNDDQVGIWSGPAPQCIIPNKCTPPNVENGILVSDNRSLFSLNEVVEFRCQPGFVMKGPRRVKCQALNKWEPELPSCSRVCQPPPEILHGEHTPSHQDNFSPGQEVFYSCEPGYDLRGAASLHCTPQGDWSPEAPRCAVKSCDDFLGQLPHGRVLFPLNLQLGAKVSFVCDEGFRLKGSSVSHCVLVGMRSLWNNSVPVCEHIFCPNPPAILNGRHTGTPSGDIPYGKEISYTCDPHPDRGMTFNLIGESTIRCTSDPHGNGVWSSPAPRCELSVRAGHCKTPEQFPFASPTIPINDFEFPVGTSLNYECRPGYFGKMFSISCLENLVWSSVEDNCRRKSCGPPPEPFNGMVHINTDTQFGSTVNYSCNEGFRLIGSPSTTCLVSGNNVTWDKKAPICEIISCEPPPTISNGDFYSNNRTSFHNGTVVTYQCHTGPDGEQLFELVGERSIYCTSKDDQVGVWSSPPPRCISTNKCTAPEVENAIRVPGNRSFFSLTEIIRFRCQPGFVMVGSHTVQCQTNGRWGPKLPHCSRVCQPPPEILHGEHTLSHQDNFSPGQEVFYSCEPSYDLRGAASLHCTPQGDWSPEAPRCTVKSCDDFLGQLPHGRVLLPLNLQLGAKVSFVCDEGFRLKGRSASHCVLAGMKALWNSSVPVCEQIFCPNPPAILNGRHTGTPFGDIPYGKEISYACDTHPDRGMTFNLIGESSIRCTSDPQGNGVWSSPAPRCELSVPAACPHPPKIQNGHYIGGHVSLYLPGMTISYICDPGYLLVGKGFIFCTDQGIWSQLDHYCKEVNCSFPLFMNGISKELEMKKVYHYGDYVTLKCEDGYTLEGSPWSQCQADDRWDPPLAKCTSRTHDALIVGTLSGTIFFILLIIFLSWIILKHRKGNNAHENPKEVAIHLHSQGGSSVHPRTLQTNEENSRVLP
- METHOD_NOTES: erythrocyte binding assay (FIGS. 10-13)
PROPERTY_NAME: fold reduction of binding compared to the chimeric antibody

Recorded result, E DI VH2/VL1 44H1 (antibody, V domains shown, also called immunogenicity-reduced Ab VH2/VL1) VH: DVQLQESGPGLVKPSQTLSLTCTVSGYSMTSDYAWNWIRQFPGKGLEWIGYISYSGSTSYHPSVKSRITISRDTSKNQFFLQMNSVTTEDTATYYCTTIINYDKYDWYFDVWGQGTTVTVSS VL: DIVLTQSPASLVVSVRQRATISCRASQSVRTSSYSYIHWYQQKPGQPPKLLIYYASSLESGVPARFSGSGSGTDFTLNISPVEEEDTATYYCQHSWEIPWTFGPGTKVEIK , fold reduction of binding compared to the chimeric antibody: ~2 fold

Memo: E DI VH4/VL2 (antibody, V domains shown, also called E DI V4/VL2) VH: DVQLQESGPGLVKPSQTLSLTCTVSGYSITSDYAWNWIRQFPGKGLEWIGYISYSGSTSYHPSLKSRISISRDTSKNQFFLQMNSVTTEDTATYYCTTIINYDKYDWYFDVWGQGTTVTVSS VL: DIVLTQSPASLVVSVRQRATISCRASQSVRTSSYSYIHWYQQKPGQPPKLLIKYASSLESGVPARFSGSGSGTDFTLNISPVEEEDTATYYCQHSWEIPWTFGPGTTVEIK , reported fold reduction of binding compared to the chimeric antibody: ~10 fold

The reported fold reduction of binding compared to the chimeric antibody of the binder E DI VH3/VL2 15A12 (antibody, V domains shown, also called immunogenicity-reduced Ab VH3/VL2) VH: DVQLQESGPGLVKPSQTLSLTCTVSGYSMTSDYAWNWIRQFPGKGLEWIGYISYSGSTSYHPSLKSRISISRDTSKNQFFLQMNSVTTEDTATYYCTTIINYDKYDWYFDVWGQGTTVTVSS VL: DIVLTQSPASLVVSVRQRATISCRASQSVRTSSYSYIHWYQQKPGQPPKLLIKYASSLESGVPARFSGSGSGTDFTLNISPVEEEDTATYYCQHSWEIPWTFGPGTTVEIK was ~10 fold

// fold reduction of binding compared to the chimeric antibody lookup, binder = E DI VH1/VL2 (antibody, V domains shown) VH: DVQLQESGPGLVKPSQTLSLTCTVSGYSMTSDYAWNWIRQFPGKGLEWIGYISYSGSTTYHPSVKSRITISRDTSKNQFFLQMNSVTTEDTATTYCTTIINYDKYDWYFDYWGQGTTVTVSS VL: DIVLTQSPASLVVSVRQRATISCRASQSVRTSSYSYIHWYQQKPGQPPKLLIKYASSLESGVPARFSGSGSGTDFTLNISPVEEEDTATYYCQHSWEIPWTFGPGTTVEIK , result: ~10 fold
